# tgt: T1, recombinant human APJ receptor (Chem-5-APJ cells) (human, UniProt P35414 1-380)
# T1 sequence (looked up): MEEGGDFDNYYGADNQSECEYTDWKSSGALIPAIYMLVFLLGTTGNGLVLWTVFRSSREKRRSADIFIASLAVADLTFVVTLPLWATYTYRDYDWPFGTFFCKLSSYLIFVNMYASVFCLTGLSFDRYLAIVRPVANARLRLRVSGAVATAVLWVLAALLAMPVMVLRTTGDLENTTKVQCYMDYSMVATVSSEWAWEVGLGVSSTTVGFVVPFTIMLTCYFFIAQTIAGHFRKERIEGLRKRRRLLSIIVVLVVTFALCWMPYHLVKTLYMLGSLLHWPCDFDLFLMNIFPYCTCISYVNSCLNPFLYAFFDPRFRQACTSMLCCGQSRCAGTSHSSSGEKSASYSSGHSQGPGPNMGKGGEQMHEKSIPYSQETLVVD
# protocol: cell-based or functional assay
Where no end group is shown, it is not given here. [ ]: non-standard residue; d: D form. The star is where a group is joined. Phe(4-Br) = N[C@@H](Cc1ccc(Br)cc1)C(=O)O; Palmitoyl = CCCCCCCCCCCCCCCC(=O)*; NMeL = CN[C@@H](CC(C)C)C(=O)O; Nle = CCCC[C@H](N)C(=O)O; Aib = CC(C)(N)C(=O)O
assay metric: EC50 (nM), Ca2+ mobilization assay

Completed entries (count: 6):
KFRRQRPR[NMeL]SHKGP[Nle][Aib][Phe(4-Br)] (not fully specified (N-terminus); numbers in words are those of the source; also: N-terminal PEG from Fmoc-(PEG)6 propionic acid, Fmoc removal not given here) [PEG-NMe17A2 (59)]    2.5 nM
KFRRQRPRLSHKGP[Nle][Aib][Phe(4-Br)] (not fully specified (N-terminus); also: Fmoc removal from PEG not given here) [PEG-17A2 (57)]    6.3 nM
RQRPRLSHKGP[Nle][Aib][Phe(4-Br)] [Apelin-14A2 (54)]    568 nM
Palmitoyl-KFRRQRPRLSHKGP[Nle][Aib][Phe(4-Br)] [PALM-17A2 (56)]    2.6 nM
KFRRQRPRLSHKGP[Nle][Aib][Phe(4-Br)] (Synthetic ACE2-resistant analogue; also called parent peptide 5) [apelin-17 A2 (5)]    4 nM
Palmitoyl-KFRRQRPR[NMeL]SHKGP[Nle][Aib][Phe(4-Br)] [PALM-NMe17A2 (58)]    11.3 nM

// next entry
Q: Annotate the binder RQRPR[NMeL]SHKGP[Nle][Aib][Phe(4-Br)] [Apelin-NMe14A2 (55)] with its measured EC50 (nM), Ca2+ mobilization assay.
A: 176 nM

Just for reference, patent US20200239537A1 is where these values come from.
